Cited source for all entries: PubChem BioAssay

# assay text: HepG2 cytotoxicity, primary screen, cytotoxicity control for P. falciparum antimalarial project, cell-based, ATP luminescence (AID 2303)
# cond: HepG2 viability, 24-48 h, at 10 µM
Active and inactive are the calls of the source.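 Rule for the calls: active = inhibition above 50%; inactive = the rest.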
Choose one outcome from this list and give only that: active, inactive

Problem: // outcome(item) with item = CC1CC(C)CN(CC(O)CNC(=O)Nc2ccc(Br)cc2)C1 (stereo not drawn)
Solution: inactive

Problem: Test call for this compound, please: CCOC(=O)c1ccc(NCc2ccccn2)cc1
Solution: inactive

Problem: Please let me know the test result on file for O=C(Nc1cccc(-c2cccc(-c3nc4ccc(F)cc4[nH]3)c2)c1)Nc1ccc(F)c(F)c1F .
Solution: active

Problem: Entry COc1ccc2nccc(N3CCC(CCNCc4ccc5c(n4)NC(=O)CS5)CC3)c2n1 : call = ?
Solution: inactive

Problem: Per the records of this test, what outcome belongs to O=S(=O)(Nc1cc2c(cc1OCc1ccccc1)CCN(C1CCC1)CC2)c1ccc(-c2ccc(Cl)cc2)cc1 ?
Solution: inactive

Problem: Identify the outcome logged in this assay for the compound shown: CC(C)CCCC(C)(C)NC[C@@H](O)[C@H](Cc1ccccc1)NC(=O)c1cccc(OCC2CC2)c1
Solution: active

Problem: Answer briefly: the call reported for COc1ccc(OC)c(-c2ccc(=O)n(CC(=O)Nc3cccc4ccccc34)n2)c1 in this assay.
Solution: inactive

Problem: // return assay outcome for CC(=O)Nc1nc(C(=O)Nc2cccc(-c3ccc(-c4nc5ccccc5[nH]4)cc3)c2)cs1
Solution: active
